Tested on: expert taste panel
test-name: Sweetness potency by comparison of gustatory sweetness with a sucrose standard (expert taste panel)
Type: in vivo
condition-parameters: aqueous solutions compared with aqueous sucrose solutions of 7-9% by an expert taste panel
value-kind: log10(Sweetness potency) (log10 of the value in x sucrose)

compound: CC1(C)C(NC(=O)[C@@H](CO)NC(=O)[C@@H](N)CC(=O)O)C(C)(C)S1(=O)=O
log10(Sweetness potency): 2.93
//
compound: COC[C@@H](NC(=O)[C@@H](N)CC(=O)O)C(=O)NC(C1CC1)C1CC1
log10(Sweetness potency): 1.93
//
compound: CC(C)C(NC(=O)[C@@H](CO)NC(=O)[C@@H](N)CC(=O)O)C(C)C
log10(Sweetness potency): 2.26
//
compound: N[C@@H](CC(=O)O)C(=O)N[C@H](CO)C(=O)NC(C1CC1)C1CC1
log10(Sweetness potency): 2.85
//
compound: CC1CCCC(C)C1NC(=O)[C@@H](CO)NC(=O)[C@@H](N)CC(=O)O (mixture of isomers)
log10(Sweetness potency): 2.30
//
compound: CC1(C)SC(C)(C)C1NC(=O)[C@@H](CO)NC(=O)[C@@H](N)CC(=O)O
log10(Sweetness potency): 3.08
//
compound: COC[C@@H](NC(=O)[C@@H](N)CC(=O)O)C(=O)NC1C(C)(C)S(=O)(=O)C1(C)C
log10(Sweetness potency): 2.30
//
compound: COC[C@@H](NC(=O)[C@@H](N)CC(=O)O)C(=O)NC1C(C)(C)SC1(C)C
log10(Sweetness potency): 2.51
